Assay: Photophysical properties (fluorescence excitation/emission in PBS)
Assay type: physicochemical
Conditions: 10 μM solution in PBS
In this section, each of the compounds is paired with its reported Photophysical Properties Emission λmax.
State just the number; it will be interpreted in nm.

Sample answers from the record:
COCCOCCOCCOCCOCCOCCOCCOCCOCCOCCOCCOCCCNc1nc(C(=O)NCCOCCOCCOCCOCCOCCOCCOCCOCCOCCOCCOCCOCCOCCOCCOCCOCCOCCOCCOCCOCCOCCOCCOCCOC)c(NCCCOCCOCCOCCOCCOCCOCCOCCOCCOCCOCCOCCOC)nc1C(=O)NCCOCCOCCOCCOCCOCCOCCOCCOCCOCCOCCOCCOCCOCCOCCOCCOCCOCCOCCOCCOCCOCCOCCOCCOC : 602
COCCOCCOCCOCCCNc1nc(C(=O)NCCOCCOCCOCCOCCOCCOCCOCCOCCOCCOCCOCCOC)c(NCCCOCCOCCOCCOC)nc1C(=O)NCCOCCOCCOCCOCCOCCOCCOCCOCCOCCOCCOCCOC : 603

# Photophysical Properties Emission λmax (compound: COCCOCCOCCOCCOCCOCCOCCOCCOCCOCCOCCOCCCNc1nc(C(=O)NCCOCCOCCOCCOCCOCCOCCOCCOCCOCCOCCOCCOC)c(NCCCOCCOCCOCCOCCOCCOCCOCCOCCOCCOCCOCCOC)nc1C(=O)NCCOCCOCCOCCOCCOCCOCCOCCOCCOCCOCCOCCOC ) is 605

# Photophysical Properties Emission λmax (compound: COCCOCCOCCOCCOCCOCCOCCOCCOCCOCCOCCOCCOCCOCCOCCOCCOCCOCCOCCOCCOCCOCCOCCOCCCNc1nc(C(=O)NCCOCCOCCOCCOCCOCCOCCOCCOCCOCCOCCOCCOCCOCCOCCOCCOCCOCCOCCOCCOCCOCCOCCOCCOC)c(NCCCOCCOCCOCCOCCOCCOCCOCCOCCOCCOCCOCCOCCOCCOCCOCCOCCOCCOCCOCCOCCOCCOCCOCCOC)nc1C(=O)NCCOCCOCCOCCOCCOCCOCCOCCOCCOCCOCCOCCOCCOCCOCCOCCOCCOCCOCCOCCOCCOCCOCCOCCOC ) is 603

# Photophysical Properties Emission λmax (compound: COCCOCCOCCOCCOCCOCCOCCOCCCNc1nc(C(=O)NCCOCCOCCOCCOCCOCCOCCOCCOCCOCCOCCOCCOCCOCCOCCOCCOCCOCCOCCOCCOCCOCCOCCOCCOC)c(NCCCOCCOCCOCCOCCOCCOCCOCCOC)nc1C(=O)NCCOCCOCCOCCOCCOCCOCCOCCOCCOCCOCCOCCOCCOCCOCCOCCOCCOCCOCCOCCOCCOCCOCCOCCOC ) is 603

# Photophysical Properties Emission λmax (compound: COCCOCCOCCOCCCNc1nc(C(=O)NCCOCCOCCOCCOCCOCCOCCOCCOCCOCCOCCOCCOCCOCCOCCOCCOCCOCCOCCOCCOCCOCCOCCOCCOC)c(NCCCOCCOCCOCCOC)nc1C(=O)NCCOCCOCCOCCOCCOCCOCCOCCOCCOCCOCCOCCOCCOCCOCCOCCOCCOCCOCCOCCOCCOCCOCCOCCOC ) is 602

###

In this section, each of the compounds is paired with its reported Photophysical Properties Excitation λmax.
Assay: Photophysical properties (fluorescence excitation/emission in PBS)
Assay type: physicochemical
Conditions: 10 μM solution in PBS
State just the number; it will be interpreted in nm.

Sample answers from the record:
COCCOCCOCCOCCOCCOCCOCCOCCCNc1nc(C(=O)NCCOCCOCCOCCOCCOCCOCCOCCOCCOCCOCCOCCOCCOCCOCCOCCOCCOCCOCCOCCOCCOCCOCCOCCOC)c(NCCCOCCOCCOCCOCCOCCOCCOCCOC)nc1C(=O)NCCOCCOCCOCCOCCOCCOCCOCCOCCOCCOCCOCCOCCOCCOCCOCCOCCOCCOCCOCCOCCOCCOCCOCCOC : 498
COCCOCCOCCOCCCNc1nc(C(=O)NCCOCCOCCOCCOCCOCCOCCOCCOCCOCCOCCOCCOC)c(NCCCOCCOCCOCCOC)nc1C(=O)NCCOCCOCCOCCOCCOCCOCCOCCOCCOCCOCCOCCOC : 492
COCCOCCOCCOCCOCCOCCOCCOCCOCCOCCOCCOCCCNc1nc(C(=O)NCCOCCOCCOCCOCCOCCOCCOCCOCCOCCOCCOCCOC)c(NCCCOCCOCCOCCOCCOCCOCCOCCOCCOCCOCCOCCOC)nc1C(=O)NCCOCCOCCOCCOCCOCCOCCOCCOCCOCCOCCOCCOC : 500
COCCOCCOCCOCCOCCOCCOCCOCCOCCOCCOCCOCCCNc1nc(C(=O)NCCOCCOCCOCCOCCOCCOCCOCCOCCOCCOCCOCCOCCOCCOCCOCCOCCOCCOCCOCCOCCOCCOCCOCCOC)c(NCCCOCCOCCOCCOCCOCCOCCOCCOCCOCCOCCOCCOC)nc1C(=O)NCCOCCOCCOCCOCCOCCOCCOCCOCCOCCOCCOCCOCCOCCOCCOCCOCCOCCOCCOCCOCCOCCOCCOCCOC : 499

Next:
# Photophysical Properties Excitation λmax (compound: COCCOCCOCCOCCCNc1nc(C(=O)NCCOCCOCCOCCOCCOCCOCCOCCOCCOCCOCCOCCOCCOCCOCCOCCOCCOCCOCCOCCOCCOCCOCCOCCOC)c(NCCCOCCOCCOCCOC)nc1C(=O)NCCOCCOCCOCCOCCOCCOCCOCCOCCOCCOCCOCCOCCOCCOCCOCCOCCOCCOCCOCCOCCOCCOCCOCCOC ) is 494
